System: Escherichia coli
Test: Antibacterial activity against Escherichia coli CCUG assessed as bacterial growth inhibition by agar diffusion assay
Assay type: functional
Can you tell me MIC for the items I'm about to list?

[in] I'd like to know its MIC. The molecule in question is Cc1c(C(=O)N(C)CCN(C)C)nn(-c2ccc(Cl)cc2)c1-n1cccc1
[out] > 512 mg/L

[in] Which MIC is listed for CCCCCCc1ccc(O)cc1OCCCCCC(=O)NCCO ?
[out] > 512 mg/L

[in] I'd like to know its MIC. The molecule in question is CCCCCc1cc(OC)cc(OCCCCCCCC(=O)NCCO)c1
[out] > 512 mg/L

[in] # lookup: MIC of CC(C)c1ccc2c(c1)c(O)c(C(C)C)c(=O)n2CC(C)(C)C
[out] > 512 mg/L

[in] Record request: MIC value, item CCOC(=O)c1c(O)nc2c(C)cccc2c1O
[out] > 512 mg/L

[in] What value of measured MIC is listed for O=C(NCc1ccc2c(c1)OCO2)c1cnn(-c2ccccc2)c1-n1cccc1 ?
[out] > 512 mg/L

[in] // MIC lookup, key: CCOC(=O)c1cn(CC)c2cc(N)c(F)cc2c1=O
[out] 32 mg/L

[in] Which MIC value belongs to CCCCCc1cc(O)cc(OCCCCCCCCCCCC(=O)NCCO)c1 ?
[out] > 512 mg/L

[in] Bench note: what MIC did COc1ccc(CNC(=O)c2c(O)c3cc(-c4cccnc4)ccc3n(CCCCO)c2=O)cc1 show?
[out] 64 mg/L

[in] Which MIC is listed for O=C(O)c1cn(C2CC2)c2cc(Br)c(F)cc2c1=O ?
[out] 0.25 mg/L

###

Tested on: Escherichia coli
Experiment: Antibacterial activity against Escherichia coli CCUG assessed as bacterial growth inhibition by agar diffusion assay
Assay type: functional
reported endpoint: MIC (µg/mL)
The reply should contain only the number, in µg/mL.

[in] Name the reported MIC value associated with the compound CC(C)(C)n1cc(C(=O)O)c(=O)c2cc(F)c(Sc3ccccc3)cc21
[out] 16

[in] Can you share its MIC? I mean this compound: CC(C)(C)n1cc(C(=O)O)c(=O)c2cc(F)c(-c3cccnc3)cc21
[out] 2

[in] Would you mind telling me what MIC value was observed for CC(C)(C)n1cc(C(=O)O)c(=O)c2cc(F)c(-c3ccc(F)cc3F)cc21 ?
[out] 16

###

System: Pseudomonas aeruginosa
Test: Antibacterial activity against Pseudomonas aeruginosa ATCC 27853 assessed as bacterial growth inhibition by agar diffusion assay
Type: functional
Can you tell me MIC for the items I'm about to list?

[in] GET /values?readout=MIC&system=Pseudomonas aeruginosa&item= CCCCCCc1ccc(O)cc1OCCCCCCCCCCC(=O)NCCO
[out] > 512 µg/mL

[in] Enter reported MIC observed with Pseudomonas aeruginosa for CC(C)(C)n1cc(C(=O)O)c(=O)c2cc(F)c(Br)cc21
[out] 32 µg/mL

[in] Request - read-out MIC | tested on Pseudomonas aeruginosa | molecule CCCCCc1cc(O)cc(OCCCCCCCCCCC(=O)NC(CO)CO)c1
[out] > 512 µg/mL

[in] Find MIC (Pseudomonas aeruginosa) for the entry CCCCCc1cc(O)cc(OCCCCCCCCCCCC(=O)NCCO)c1
[out] > 512 µg/mL

[in] Hi! What's the reported MIC for CCCCCCC(C)(C)c1cc(O)cc(OCCCCCCCC(=O)NCCO)c1 on Pseudomonas aeruginosa?
[out] > 512 µg/mL

[in] Missing value: MIC, Pseudomonas aeruginosa, entry CCCCCc1cc(O)cc(OCCCCCCCCCCC(=O)NCCO)c1 . Fill in?
[out] > 512 µg/mL

[in] Given the entry Cc1c(C(=O)N(C)CCN(C)C)nn(-c2ccc(Cl)cc2)c1-n1cccc1 , what MIC was observed with Pseudomonas aeruginosa?
[out] > 512 µg/mL

[in] Give MIC (Pseudomonas aeruginosa) of the following molecule: CC(C)(C)n1cc(C(=O)O)c(=O)c2cc(F)c(-c3cccnc3)cc21
[out] 4 µg/mL

[in] Any idea what MIC came out for CCOC(=O)c1cn2c3c(cccc3c1=O)OCC2CC (stereo unspecified) on Pseudomonas aeruginosa?
[out] > 256 µg/mL

[in] Entry COc1ccc(-c2cc3c(cc2F)c(=O)c(C(=O)O)cn3C(C)(C)C)cc1 , system Pseudomonas aeruginosa: what MIC was measured?
[out] > 256 µg/mL

[in] # value lookup — system Pseudomonas aeruginosa, readout MIC, item O=C(O)c1cn(C2CC2)c2cc(Br)c(F)cc2c1=O
[out] 8 µg/mL

###

System: Escherichia coli
Experiment: Antibacterial activity against Escherichia coli CCUG assessed as bacterial growth inhibition by agar diffusion assay
Format: functional
reported endpoint: MIC

[in] So what does the record say about MIC for CCCCCc1cc(O)cc(OCCCCCCCCCCC(=O)NCCO)c1 ?
[out] > 512 µg/mL

[in] Reported MIC for CCCCCCc1ccc(OCCCCCCCC(=O)NCCO)cc1O : what is it?
[out] > 512 µg/mL

[in] # query: MIC of entry COc1ccc(-c2cc3c(cc2F)c(=O)c(C(=O)O)cn3C(C)(C)C)cc1
[out] > 256 µg/mL

[in] For the compound CCOC(=O)c1cn2c3c(cccc3c1=O)OCC2CC (stereo unspecified) , what MIC is on record?
[out] > 256 µg/mL

[in] Record request: MIC value, item CCCCCCC(C)(C)c1cc(O)cc(OCCCCCCCC(=O)NCCO)c1
[out] > 512 µg/mL

[in] If you can, please state the reported MIC value of CC(C)(C)n1cc(C(=O)O)c(=O)c2cc(F)c(Br)cc21 .
[out] 8 µg/mL

###

Kindly supply the reported MIC values for the records listed here.
Test system: Escherichia coli
Assay: Synergistic antibacterial activity against Escherichia coli CCUG in presence of 0.5 times MIC of colistin by microdilution broth method
Type: functional
Just the number please, in µg/mL, no unit attached.

[in] Returns the measured MIC for the input molecule. Input: CCOC(=O)c1c(O)nc2c(C)cccc2c1O
[out] 64

[in] Requested read-out: MIC. Entry: Cc1c(C(=O)N(C)CCN(C)C)nn(-c2ccc(Cl)cc2)c1-n1cccc1
[out] 64

[in] # input molecule: CCCCCCc1ccc(O)cc1OCCCCCCCCCCC(=O)NCCO ; wanted: its MIC
[out] 4

[in] What MIC value was documented for this molecule, CCCCCCc1ccc(OCCCCCCCC(=O)NCCO)cc1O ?
[out] 8

[in] Look up MIC: CC(C)c1ccc2c(c1)c(O)c(C(C)C)c(=O)n2CC(C)(C)C
[out] 32

[in] Give the measured MIC of CCCCCc1cc(O)cc(OCCCCCCCCCCC(=O)NC(CO)CO)c1 .
[out] 8

[in] // returns reported MIC for input CCCCCc1cc(O)cc(OCCCCCCCCCCC(=O)NCCO)c1
[out] 8

[in] Recorded MIC for CCCCCc1cc(OC)cc(OCCCCCCCC(=O)NCCO)c1 , please?
[out] 4

[in] Requested field: MIC. Item: O=C(NCc1ccc2c(c1)OCO2)c1cnn(-c2ccccc2)c1-n1cccc1
[out] 64

[in] MIC lookup needed for CCCCCCC(C)(C)c1cc(O)cc(OCCCCCCCC(=O)NCCO)c1 , thanks.
[out] 2

[in] Recorded MIC of COc1ccc(CNC(=O)c2c(O)c3cc(-c4cccnc4)ccc3n(CCCCO)c2=O)cc1 , please.
[out] 32

[in] So what's the measured MIC for this one? CCCCCc1cc(O)cc(OCCCCCCCCCCCC(=O)NCCO)c1
[out] 8
